Numbers sourced from PubChem BioAssay AID192.

System: BDF1 mice, B16 melanoma ip, median survival T/C
Test: NCI In Vivo Anticancer Drug Screen. Data for tumor model B16 Melanoma (intraperitoneal) in B6D2F1 (BDF1) mice
Conditions: endpoint: median survival time; dose: 12.5 mg/kg/injection; schedule: Q01DX009 (ip); vehicle: saline with Tween-80; higher = longer survival
Toxic doses and inconclusive results are not listed.
Catalogue of compounds with associated T/C
PARAMETER MEASURED: T/C

[[record]]
smiles_text = "N#C[CH2][Sn]([I])([c]1ccccc1)[c]1ccccc1"
assay_system = "BDF1 mice, B16 melanoma ip, median survival T/C"
parameter_measured = "T/C"
test_value = "86 % of control"

[[record]]
smiles_text = "NC(=S)N/N=C/c1ccc(OC(F)(F)F)cn1"
assay_system = "BDF1 mice, B16 melanoma ip, median survival T/C"
parameter_measured = "T/C"
test_value = "95 % of control"

[[record]]
smiles_text = "O=C(Nc1ccccc1F)C(c1ccccc1)c1ccccc1"
assay_system = "BDF1 mice, B16 melanoma ip, median survival T/C"
parameter_measured = "T/C"
test_value = "101 % of control"

[[record]]
smiles_text = "CCCCCC#CC(=O)OC"
assay_system = "BDF1 mice, B16 melanoma ip, median survival T/C"
parameter_measured = "T/C"
test_value = "102 % of control"

[[record]]
smiles_text = "C=CC(=O)NCNC(=O)C=C"
assay_system = "BDF1 mice, B16 melanoma ip, median survival T/C"
parameter_measured = "T/C"
test_value = "104 % of control"

[[record]]
smiles_text = "Cc1ccc(NC(=O)Nc2ccc(C)c(NC(=O)Nc3ccc(C)c(Cl)c3)c2)cc1Cl"
assay_system = "BDF1 mice, B16 melanoma ip, median survival T/C"
parameter_measured = "T/C"
test_value = "90 % of control"

[[record]]
smiles_text = "CCCCCCC(=O)/C=C/c1cccc(OCOCC)c1"
assay_system = "BDF1 mice, B16 melanoma ip, median survival T/C"
parameter_measured = "T/C"
test_value = "99 % of control"


---

Catalogue of compounds with associated T/C
Test system: BDF1 mice, B16 melanoma ip, median survival T/C
Assay: NCI In Vivo Anticancer Drug Screen. Data for tumor model B16 Melanoma (intraperitoneal) in B6D2F1 (BDF1) mice
Details: endpoint: median survival time; dose: 37.5 mg/kg/injection; schedule: Q01DX009 (ip); vehicle: Klucel (hydroxypropylcellulose) (HPC); higher = longer survival
Inconclusive results and toxic doses are left out.
PARAMETER MEASURED: T/C

[[record]]
compound = "CC(=O)N(C)C(C(=O)N1CC(C)CC1C(=O)N(C)C1C(=O)NC(CC(C)C)C(=O)N2CC(C)CC2C(=O)NC(CC(C)C)C(=O)N(C)C(C(C)C)C(=O)N2CCCC2C(=O)N(C)C(CC(C)C)C(=O)NCC(=O)OC1C)C(C)C (centres undefined)"
test_value = "97 % of control"

[[record]]
compound = "Cc1cc(Cl)ccc1NC(=O)Nc1ccccc1Cl"
test_value = "91 % of control"

[[record]]
compound = "Cc1ccc(C(=O)/C=C/c2ccccc2O)cc1"
test_value = "103 % of control"

[[record]]
compound = "CN(C)N=Nc1ccccc1C(=O)NC#N"
test_value = "105 % of control"


---

System: BDF1 mice, B16 melanoma ip, median survival T/C
Test: NCI In Vivo Anticancer Drug Screen. Data for tumor model B16 Melanoma (intraperitoneal) in B6D2F1 (BDF1) mice
Conditions: endpoint: median survival time; dose: 50.0 mg/kg/injection; schedule: Q01DX009 (ip); vehicle: Klucel (hydroxypropylcellulose) (HPC); higher = longer survival
Toxic doses and inconclusive results are not listed.
PARAMETER MEASURED: T/C

[[record]]
compound = "Cc1cccc(Nc2c(N)nc(N)nc2N)c1"
test_value = "106 % of control"

[[record]]
compound = "COc1cc2c(cc1Oc1c(Oc3c(O)c(OC)cc4c3C(CC(C)C)N(C)CC4)c(OC)cc3c1C(CC(C)C)N(C)CC3)C(CC(C)C)N(C)CC2 (centres undefined)"
test_value = "110 % of control"

[[record]]
compound = "CCOC(=O)C(Cl)CCl (centres undefined)"
test_value = "100 % of control"

[[record]]
compound = "O=C(Nc1ccccc1F)Nc1ccccc1Cl"
test_value = "92 % of control"

[[record]]
compound = "Nc1cc(N)cc(Cc2ccccc2)c1"
test_value = "101 % of control"

[[record]]
compound = "CC(C)NNC(=O)c1ccc(Cl)cc1"
test_value = "94 % of control"

[[record]]
compound = "CCO/C=C1\\SC(=S)N(c2cccc(O)c2)C1=O"
test_value = "102 % of control"

[[record]]
compound = "CCCCCCCCC1CCC(N)CC1 (centres undefined)"
test_value = "93 % of control"

[[record]]
compound = "O=C(Oc1ccc(OC(=O)c2ccccc2)c2c1C(=O)C(CBr)=C(CBr)C2=O)c1ccccc1"
test_value = "101 % of control"

[[record]]
compound = "CS(=O)(=O)OCCN(CCOS(C)(=O)=O)c1ccc(C=Nc2ccc3oc(=O)ccc3c2)cc1"
test_value = "118 % of control"

[[record]]
compound = "CC1(C)N=C(N)N=C(N)N1c1ccc(Cl)cc1Cl"
test_value = "123 % of control"

[[record]]
compound = "CC(C)=CN1CCOCC1"
test_value = "100 % of control"

[[record]]
compound = "O=S(=O)(CCCl)c1ccc2ccccc2c1"
test_value = "104 % of control"

[[record]]
compound = "O=c1[nH]c(=S)[nH]cc1Oc1ccc(I)cc1"
test_value = "91 % of control"

[[record]]
compound = "COc1ccc(I)c([N+](=O)[O-])c1"
test_value = "93 % of control"

[[record]]
compound = "COc1c2ccoc2nc2c(OC)c3c(cc12)OCO3"
test_value = "92 % of control"

[[record]]
compound = "O=S1(=O)C=Cc2ccccc21"
test_value = "90 % of control"

[[record]]
compound = "CCCn1c(=S)[nH]c2ccccc2c1=O"
test_value = "100 % of control"

[[record]]
compound = "O=C(O)c1ccccc1C(=O)OC1CC2C=CC1C21CC1 (centres undefined)"
test_value = "93 % of control"

[[record]]
compound = "[O-][n+]1c(CN2CCCCC2)nc2cccc3c2c1-c1ccccc1-3"
test_value = "102 % of control"

[[record]]
compound = "Cc1ccccc1CN1CCN(CCOC(c2ccccc2)c2ccccc2Cl)CC1 (centres undefined)"
test_value = "86 % of control"

[[record]]
compound = "CCOC(=O)C[Si](C)(C)C"
test_value = "108 % of control"

[[record]]
compound = "O=C(O)c1c(O)c(-c2ccccc2)nc2ccccc12"
test_value = "103 % of control"

[[record]]
compound = "COc1cc(C)c(C2NC(=O)c3ccccc3N2)cc1C (centres undefined)"
test_value = "113 % of control"

[[record]]
compound = "CS(=O)(=O)OCCCCCCCCCOS(C)(=O)=O"
test_value = "88 % of control"

[[record]]
compound = "CC(=O)Nc1nc(=O)n(CC(=O)c2cccs2)cc1F"
test_value = "96 % of control"

[[record]]
compound = "O=c1[nH]cnc2nc(/N=N/SCCO)[nH]c12"
test_value = "103 % of control"

[[record]]
compound = "Cc1cc(=O)[nH]c(N/N=C/c2ccccc2O)n1"
test_value = "87 % of control"

[[record]]
compound = "Cc1cnc2c(NC(=O)CCl)nn(C)c2n1"
test_value = "103 % of control"

[[record]]
compound = "CC(=O)CC(=O)Nc1cccc(Cl)c1C"
test_value = "103 % of control"

[[record]]
compound = "CN(C)c1ccc2c(N(C)C)cc(N(C)C)nc2c1"
test_value = "102 % of control"

[[record]]
compound = "CCCCCCCCCCCC(=O)Nc1ccccc1"
test_value = "92 % of control"

[[record]]
compound = "S=C(NNc1ccccc1)Nc1ccccc1"
test_value = "106 % of control"

[[record]]
compound = "Cc1cccc(C)c1NC(=O)c1ccccc1"
test_value = "100 % of control"

[[record]]
compound = "CCOC(=O)C(OCC)P(=O)(OCC)OCC (centres undefined)"
test_value = "95 % of control"

[[record]]
compound = "CN(C)C(C#N)C(=O)c1ccccc1 (centres undefined)"
test_value = "97 % of control"

[[record]]
compound = "S=c1[nH]nc(NC2CCCCC2)s1"
test_value = "91 % of control"

[[record]]
compound = "CN(C)N=Nc1cn[nH]c1C(N)=O"
test_value = "100 % of control"

[[record]]
compound = "CCC(C)c1ccccc1OC(=O)Nc1ccc(OC)cc1 (centres undefined)"
test_value = "100 % of control"

[[record]]
compound = "O=[N+]([O-])/C=C/c1ccc2ccccc2c1"
test_value = "95 % of control"

[[record]]
compound = "NC(CSCc1ccccc1)C(=O)O (centres undefined)"
test_value = "106 % of control"

[[record]]
compound = "ClC(c1ccccc1)c1ccc(Br)cc1 (centres undefined)"
test_value = "105 % of control"

[[record]]
compound = "CC(=O)OCC1OC(S[As](C)C)C(OC(C)=O)C(OC(C)=O)C1OC(C)=O (centres undefined)"
test_value = "107 % of control"

[[record]]
compound = "O=C(O)C1CCCCC1C(=O)Nc1ccc(Cl)cc1 (centres undefined)"
test_value = "114 % of control"

[[record]]
compound = "Cc1ccc(SSc2ccc(C)cc2[N+](=O)[O-])c([N+](=O)[O-])c1"
test_value = "89 % of control"

[[record]]
compound = "ClCCN(CCCl)c1ccc(/C=C/c2ccccc2)cc1"
test_value = "90 % of control"

[[record]]
compound = "O=C1C(=O)c2ccccc2-c2ccccc21"
test_value = "109 % of control"

[[record]]
compound = "CN(C)C(=S)S"
test_value = "103 % of control"

[[record]]
compound = "CCC(C)C(C#N)(CCN(CC)CC)c1ccccc1 (centres undefined)"
test_value = "118 % of control"

